Molecular target: MRGPRX1 (Homo sapiens, UniProt Q96LB2)
Sequence (Q96LB2 whole entry): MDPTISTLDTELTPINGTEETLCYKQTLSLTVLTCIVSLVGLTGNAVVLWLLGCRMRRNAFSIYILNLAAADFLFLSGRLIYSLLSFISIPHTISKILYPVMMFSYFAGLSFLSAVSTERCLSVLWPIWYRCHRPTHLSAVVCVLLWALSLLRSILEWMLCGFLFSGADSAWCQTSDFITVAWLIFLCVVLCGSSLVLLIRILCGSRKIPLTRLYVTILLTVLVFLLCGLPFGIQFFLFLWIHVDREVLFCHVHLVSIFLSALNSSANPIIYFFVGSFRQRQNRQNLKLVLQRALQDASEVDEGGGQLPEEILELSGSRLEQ
Assay: FLIPR calcium imaging, HEK293 expressing MRGPRX1
Format: cell-based
Conditions: SEM
Positions of bridges follow the written chain, without caps; N, C: chain ends. No end group written: not given here.
MEASUREMENT_NAME: EC50 (nM)
Answers are plain numbers, in nM.

Solved cases below.
RESIDUE_STRING | MEASUREMENT_NAME | UNIT_OF_MEASUREMENT | NUMERIC_READOUT
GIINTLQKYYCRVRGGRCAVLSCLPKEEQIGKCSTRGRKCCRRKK (disulfide 11-40, 18-33, 23-41) [DEFB103] | EC50 | nM | 280
GIGDPVTCLKSGAICHPVFCPRRYKQIGTCGLPGTKCCKKP (disulfide 8-37, 15-30, 20-38) [DEFB4] | EC50 | nM | 58300

We next turn to a different sequence, shown below.
Req: Item: FLPKTLRKFFCRIRGGRCAVLNCLGKEEQIGRCSNSGRKCCRKKK (disulfide 11-40, 18-33, 23-41) [Defb14] Test system: MRGPRX1 (Homo sapiens, UniProt Q96LB2) Read-out: EC50 Value: ?
Resp: 610
